targetDesc: Human neutrophil elastase (Homo sapiens (Human), UniProt P08246)
Sequence (P08246 30-247): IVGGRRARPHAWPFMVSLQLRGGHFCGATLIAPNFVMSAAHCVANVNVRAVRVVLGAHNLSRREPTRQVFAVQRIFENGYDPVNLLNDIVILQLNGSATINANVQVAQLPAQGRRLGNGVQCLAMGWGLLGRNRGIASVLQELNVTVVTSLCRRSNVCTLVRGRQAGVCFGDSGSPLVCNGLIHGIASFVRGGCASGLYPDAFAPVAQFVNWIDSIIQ
testName: Human Neutrophil Elastase Assay
details: substrate MeOSuc-Ala-Ala-Pro-Val-AMC 250 μM, fluorescence, pH 7.5
pIC50: −log10 of the molar value.

# molecule, signQualifier, pIC50
data = [
    ("Cc1c(-c2cccc(C(F)(F)F)c2)c(=O)c(C(=O)NCc2ccc(S(C)(=O)=NS(C)(=O)=O)cc2)cn1C(C)C (stereo not drawn)", "=", 8.14),
    ("Cc1cc(S(C)(=O)=NC#N)ccc1CNC(=O)c1cn(C(C)C)c(C)c(-c2cccc(C(F)(F)F)c2)c1=O (stereo not drawn)", "=", 8.66),
    ("CCn1cc(C(=O)NCc2ccc(S(=O)(=NC#N)C(C)C)cc2)c(=O)c(-c2cccc(C(F)F)c2)c1C (single isomer, unassigned) [Example 30A]", "=", 8.74),
    ("Cc1c(-c2cccc(C(F)F)c2)c(=O)c(C(=O)NCc2ccc(S(=O)(=NC#N)C(C)C)cc2)cn1-c1ccnn1C (stereo not drawn)", ">", 9.00),
    ("CCS(=O)(=NC#N)c1ccc(CNC(=O)c2cn(C3CC3)c(C)c(-c3cccc(C(F)(F)F)c3)c2=O)cc1 (single isomer, unassigned) [Example 21A]", "=", 8.28),
    ("Cc1c(-c2ccnc(C(F)(F)F)c2)c(=O)c(C(=O)NCc2ccc(S(C)(=O)=NC#N)cc2)cn1-c1cccnc1 (single isomer, unassigned)", "=", 7.84),
    ("CCn1cc(C(=O)NCc2ccc(S(=O)(CC)=NC#N)cc2)c(=O)c(-c2cccc(C(F)(F)F)c2)c1C (single isomer, unassigned) [Example 10B]", "=", 8.92),
    ("Cc1c(-c2cccc(C(F)(F)F)c2)c(=O)c(C(=O)NCc2ccc(S(C)(=O)=NC#N)cc2)cn1-c1nccs1 (stereo not drawn)", "=", 8.51),
    ("Cc1c(-c2cccc(C(F)(F)F)c2)c(=O)c(C(=O)NCc2ccc(S(=O)(=NC#N)C(C)C)cc2)cn1C1CC1 (single isomer, unassigned) [Example 22A]", "=", 8.35),
    ("CN=S(=O)(c1ccc(CNC(=O)c2cn(C(C)C)c(C)c(-c3cccc(C(F)(F)F)c3)c2=O)cc1)N(C)C (stereo not drawn)", "=", 7.66),
    ("Cc1c(-c2cccc(C(F)(F)F)c2)c(=O)c(C(=O)NCc2ccc(S(C)(=O)=NC#N)cc2)cn1-c1cccnc1 (single isomer, unassigned)", "=", 8.48),
    ("Cc1c(-c2cccc(C(F)(F)F)c2)c(=O)c(C(=O)NCc2ccc(S(C)(=O)=NC#N)cn2)cn1C(C)C (stereo not drawn)", "=", 8.72),
]
